# Test system: SF-539 CNS
# assay-method-text: NCI tumour cell line growth inhibition, 48 h
Field: GI50. Provide a value for each of the compounds that follow.

What measured GI50 goes with CC(C)(C)C1CCC2c3c([nH]c4ccccc34)C3C(=O)N(c4ccc(Cl)cc4)C(=O)C3C2C1 (stereo not given) ?
> 100 µM

Request the reported GI50 associated with CC1C(C)N(C(=O)CCl)c2ccccc2N1C(=O)CCl (stereo not given)
1.4 µM

What value of GI50 has been reported for the following compound? C[CH2][Ge]([CH2]C)([CH2]C)[O]C(=O)C(OC(C)=O)c1ccccc1 (stereo not given)
> 100 µM

Which GI50 is reported for this compound? "COc1cc(Nc2ncc(-c3ccccc3)o2)cc(OC)c1"
> 25 µM

Reported GI50, compound "COc1cc(/C=C/C(=O)/C=C/c2ccc(-n3ccnc3C)cc2)ccc1O" : ____
2.19 µM

Returns the measured GI50 for the input compound. Input: "COc1ccc2c(c1)nc(C(=O)c1ccco1)c(C(F)(F)F)[n+]2[O-]"
> 100 µM

Looking for the measured GI50 of "O=C(Nc1ccccc1)Nc1ccc2cc3ccc(NC(=O)Nc4ccccc4)cc3nc2c1" , can you help?
1.63 µM

Return reported GI50; argument: Nc1ccc(C2=CC(c3ccc(Cl)cc3)N3C=CSC3=N2)cc1 (stereo not given)
1.84 µM

Please look up its GI50: CC1=C(c2ccccc2)C(O)(c2ccccc2)C(C)C1=O (stereo not given)
17.1 µM

Can you share its GI50? I mean this compound: "O=C([CH-]C(=O)c1ccccc1)c1ccccc1.[CH-]1CCCCC1.[CH-]1CCCCC1.[CH-]1CCCCC1.[Sn+4]"
10.4 µM
